# Tested on: SF-295
# experimental protocol: NCI tumour cell line growth inhibition, 48 h
The source made the active and inactive calls. Cut-off read from the data, not from the text of the source: active = GI50 up to about 1.1 µM and inactive = higher.
# output must be one of active, inactive

Here are 6 molecules together with their reported answers.
molecule: O[C@H]1[C@H]2c3cc4c(cc3CN3CCC(=C[C@@H]1O)[C@H]23)OCO4
assigned class: inactive
//
molecule: CC(OC(C)(C)C)[C@H](NC(=O)OCc1ccccc1)C(=O)NC(OCc1ccccc1)[C@H]1COC(C)(C)O1 (some centres not stated)
assigned class: inactive
//
molecule: Cc1c(CCOC=O)c(=O)[nH]c2nncn12
assigned class: inactive
//
molecule: COc1c(O)c2c(c3cc(C(=O)N4CCc5c4c(O)c(OC)c4[nH]c(C(=O)N6CC7CC78C6=CC(=O)c6[nH]cc(C)c68)cc54)[nH]c13)CCN2C(N)=O (configuration not stated)
assigned class: active
//
molecule: COC(C/C(=C/CO[Si](C(C)C)(C(C)C)C(C)C)C(=O)N(C(=O)OC(C)(C)C)c1ccccc1I)OC
assigned class: inactive
//
molecule: OCCOCn1cc(Cn2ncc3c(SCc4ccccc4)ncnc32)nn1
assigned class: inactive

[Q] How did this test come out for COc1cccc2c1OC1(C=C2)Oc2ccccc2C(=O)N1C (configuration not stated) ?
[A] inactive

[Q] Field entry: O=S1(=O)CCN(Cc2ccccc2)/C1=N\S(=O)(=O)c1ccc(Cl)cc1
[A] inactive

[Q] Field entry: CCCCCCCCCCCC[N+]12CC[N+](CCN)(CC1)CC2
[A] inactive

[Q] Field entry: NC(CSCc1ccccc1)C(=O)O (configuration not stated)
[A] inactive

[Q] Field entry: O=c1[nH]c(Br)nc2c(Br)c[nH]c12
[A] inactive

[Q] Field entry: CC(=O)c1cccc(NC(=O)C(=O)C(c2cnc3ccc([N+](=O)[O-])cc3n2)[N+](=O)[O-])c1 (configuration not stated)
[A] inactive

[Q] Field entry: CN(C)/C=N\c1cccc2c1NSN2
[A] inactive

[Q] Field entry: CCCCCCc1nn2c(-c3ccc(C)cc3)nnc2s1
[A] inactive

[Q] Field entry: O=C(Nc1ccc2nc(O)n[n+]([O-])c2c1)C(F)(F)F
[A] inactive

[Q] Field entry: Cc1cc(C)c2c(c1)CC1(Cc3c(C)ccc(C)c3C1=O)C2=O (configuration not stated)
[A] inactive

[Q] Field entry: Cc1ccc(-n2c3nc(=O)n(C)c(=O)c-3nc3ccccc32)cc1
[A] inactive

[Q] Field entry: Clc1ccc2c(Cl)ncnc2c1
[A] inactive

[Q] Field entry: Nc1nc2c(ncn2C2C=CC(COS(N)(=O)=O)C2)c(=O)[nH]1 (configuration not stated)
[A] inactive

[Q] Field entry: NC(=O)C(=CN1CC(=O)NC1=S)C(N)=O
[A] inactive

[Q] Field entry: CO/N=C1/c2sccc2[C@H](NC(=O)C(Cc2ccccc2)NC(=O)OC(C)(C)C)[C@@H]1O (some centres not stated)
[A] inactive

[Q] Field entry: O=C(O)c1nc2cc(C(F)(F)F)ccc2nc1Nc1ccc(F)cc1
[A] inactive

---

# Tested on: HT-29
# experimental protocol: NCI tumour cell line growth inhibition, 48 h
Active and inactive are the calls of the source. No stated cut-off is given here; in the data, active = GI50 up to about 1.1 µM and inactive = higher.
metric name: GI50

molecule: Nc1nc2c(ncn2C2C=CC(COS(N)(=O)=O)C2)c(=O)[nH]1 (centres undefined)
result: > 100 µM (inactive)

[Q] Request - read-out GI50 | tested on HT-29 | molecule CSc1c(C(=O)Nc2ccc(Cl)cc2)c(N)nn1-c1ccccc1
[A] > 100 µM (inactive)

[Q] Field entry: CC(=O)c1ccc2c(c1)oc(=O)n2CCN(C)C
[A] 93.8 µM (inactive)

[Q] Field entry: Cc1ccc(C)c(NC(=O)CC2C(=O)Nc3ccccc3S2(=O)=O)c1 (centres undefined)
[A] > 100 µM (inactive)

[Q] Field entry: N#Cc1cccc(C2C(=O)c3ccc(C(=O)c4ccc5c(c4)C(=O)N(c4ccc(Oc6ccc(N7C(=O)c8ccc(C(=O)c9ccc%10c(c9)C(=O)N(c9cccc(C#N)c9)C%10=O)cc8C7=O)cc6)cc4)C5=O)cc3C2=O)c1 (centres undefined)
[A] > 100 µM (inactive)

[Q] Field entry: Oc1ccc2ccccc2c1OCc1nnc(CCCCCCCCc2nnc(COc3c(O)ccc4ccccc34)n2Nc2ccccc2)n1Nc1ccccc1
[A] 10.7 µM (inactive)

---

# Tested on: T47D
# experimental protocol: NCI tumour cell line growth inhibition, 48 h
The source made the active and inactive calls. No stated cut-off is given here; in the data, active = GI50 up to about 1.1 µM and inactive = higher.
// GI50 lookup, one value per entry

compound: N=C(N)NS(=O)(=O)c1ccc(NC(=O)c2cccc3c(NNc4ccc(C(=O)O)cc4)c4ccccc4nc23)cc1
GI50: 39.6 µM (inactive)

compound: COc1ccc2c(c1)CCN1CCc3ccccc3CC21 (stereo unspecified)
GI50: 43.7 µM (inactive)

[Q] # lookup: GI50 of Cc1nn(-c2ccccc2)c2c1CC(=O)Nc1ccccc1-2
[A] > 10 µM (inactive)

[Q] Field entry: C#CC1(OC(C)=O)CCC2C3CC=C4C=C(OC(C)=O)CCC4(C)C3CCC21C (stereo unspecified)
[A] 61.5 µM (inactive)

[Q] Field entry: NC(=O)C(=CN1CC(=O)NC1=S)C(N)=O
[A] > 100 µM (inactive)

[Q] Field entry: O=C1CCSCCC(=O)Nc2ccccc2N1
[A] > 100 µM (inactive)

---

# Test system: CCRF-CEM
# experimental protocol: NCI tumour cell line growth inhibition, 48 h
The source made the active and inactive calls. No stated cut-off is given here; in the data, active = GI50 up to about 1.1 µM and inactive = higher.
metric name: GI50

molecule: CCCCC(=O)NC1(c2cc3ccccc3s2)CCCCC1
result: 19.4 µM (inactive)

[Q] # lookup: GI50 of O=C(Nc1nc(C23CC4CC(CC(C4)C2)C3)cs1)c1cc2c(ccc3ccccc32)oc1=O
[A] > 100 µM (inactive)

[Q] Field entry: CC1(C)O[C@H]2OC(CO)C(OS(C)(=O)=O)[C@H]2O1 (some centres undefined)
[A] > 100 µM (inactive)

[Q] Field entry: O=C(NCCCCCCNC(=O)n1cc(F)c(=O)[nH]c1=O)NCCCOCCOCCOCCOCCOCCOCCOCCOCCOCCOCCOCCOCCOCCOCCOCCOCCOCCOCCOCCOCCOCCCNC(=O)C(O)C(O)C(OC1OC(CO)C(O)C(O)C1O)C(O)CO (centres undefined)
[A] > 83.8 µM (inactive)

[Q] Field entry: CC[N+]1(C)CCC(O)(c2ccc(C)cc2)C(C(=O)c2ccc(C)cc2)C1 (centres undefined)
[A] 22 µM (inactive)

[Q] Field entry: O=C(/C=C/c1ccc(O)c(O)c1)NC(CO)C(=O)O (centres undefined)
[A] > 100 µM (inactive)

[Q] Field entry: CC(C)(C)OC(=O)N1C(c2cccnc2)=CC[C@H]2C3CC=C(c4cccnc4)[C@@]3(C)CC[C@@H]21 (some centres undefined)
[A] 3.99 µM (inactive)

[Q] Field entry: C=C(Cl)C(C)(Cl)CCC(Cl)C(C)(C)Cl (centres undefined)
[A] 30.3 µM (inactive)

[Q] Field entry: CCOC(=O)C1CC/C(=C(/C#N)C(=O)OC)N1 (centres undefined)
[A] > 100 µM (inactive)

---

# Tested on: NCI-H460
# experimental protocol: NCI tumour cell line growth inhibition, 48 h
The source made the active and inactive calls. No stated cut-off is given here; in the data, active = GI50 up to about 1.1 µM and inactive = higher.
metric name: GI50

Use these answered entries as a reference point.
molecule: C(/c1ccco1)=c1/nc(-c2ccccc2)n2c1nc1ccccc12
result: 39.2 µM (inactive)
--
molecule: C=CCn1c(=O)c2ccccc2[n+]2c(C)c(C(=O)OCC)sc12
result: > 100 µM (inactive)
--
molecule: CCCCCOC(=O)C(=O)Nc1[nH]nnc1C(N)=O
result: > 100 µM (inactive)
--
molecule: COC(=O)C(=O)C(C(=O)OC)C(=O)C(=O)Nc1c(Cl)cc([N+](=O)[O-])cc1Cl (stereo not given)
result: > 100 µM (inactive)
--
molecule: COc1cc(C2SCC(=O)N2Cc2ccccc2)cc(OC)c1OC (stereo not given)
result: > 100 µM (inactive)

[Q] # lookup: GI50 of N#C/C(=C/n1c(=S)[nH]c2ccccc21)C(N)=O
[A] > 100 µM (inactive)

[Q] Field entry: CCCCN(CCCC)CCCCNc1c(C)cnc2cc(Cl)ccc12
[A] 30.9 µM (inactive)

[Q] Field entry: COc1ccc(N2C(=O)CC(=O)N(C(=O)CCCCCCCCC(=O)N3C(=O)CC(=O)N(c4ccc(OC)cc4)C3=S)C2=S)cc1
[A] > 100 µM (inactive)

[Q] Field entry: CC(C)/C(Cl)=N\OC(=O)NNc1ccccc1
[A] < 0.01 µM (active)

[Q] Field entry: CC1(C)O[C@H]2OC(CO)C(OS(C)(=O)=O)[C@H]2O1 (stereo not given in full)
[A] > 100 µM (inactive)

---

# System: SN12C
# experimental protocol: NCI tumour cell line growth inhibition, 48 h
Activity calls are given as the source filed them. Rule as the data show it: active = GI50 up to about 1.1 µM and inactive = higher.
metric name: GI50

Use these answered entries as a reference point.
compound: Cc1nc(-n2nc(-c3ccccc3)cc2-c2ccccc2)sc1C(=O)CC(=O)C(=O)Nc1ccc(O)cc1
target or test system: SN12C
GI50: > 100 µM (inactive)
//
compound: CNNC1=NS(=O)(=O)c2cc(C#N)c(Cl)cc2S1
target or test system: SN12C
GI50: > 10 µM (inactive)

[Q] # lookup: GI50 of COC(=O)/C(=N\N)C(C(=O)C(=O)Nc1cc(Cl)ccc1Cl)c1nc2ccc([N+](=O)[O-])cc2nc1O (stereo not given)
[A] > 100 µM (inactive)

[Q] Field entry: CC(C)(C)C(=O)CC1=Nc2ccccc2SC1(O)CC(=O)C(C)(C)C (stereo not given)
[A] 21 µM (inactive)

[Q] Field entry: Cc1nc2c(nc1C)C(=O)c1cc(O)ccc1C2=O
[A] > 73.5 µM (inactive)

[Q] Field entry: Oc1ccc2ccccc2c1OCc1nnc(CCCCCCCCc2nnc(COc3c(O)ccc4ccccc34)n2Nc2ccccc2)n1Nc1ccccc1
[A] 35.7 µM (inactive)

[Q] Field entry: CCCSc1ccc2[nH]c(N3C(=O)/C(=C/c4ccc(O)c(OC)c4)N=C3c3ccccc3)cc2c1
[A] 4.18 µM (inactive)

[Q] Field entry: Cc1nc2[nH]ccn2c(=O)c1CCO
[A] > 10 µM (inactive)

[Q] Field entry: CCCCCCCCCCCC[N+]12CC[N+](CCN)(CC1)CC2
[A] 76.7 µM (inactive)

[Q] Field entry: COC(=O)c1cc2c3c(c(C(C)=O)c(OC)c2[nH]1)NCC3
[A] > 50 µM (inactive)
